# TARGET_OR_SYSTEM: human IRAK4 kinase domain (aa 154-460) (Homo sapiens)
# Construct: human IRAK4 kinase domain (aa 154-460; GenBank ID AF445802)
# Sequence (Q9NWZ3 154-460): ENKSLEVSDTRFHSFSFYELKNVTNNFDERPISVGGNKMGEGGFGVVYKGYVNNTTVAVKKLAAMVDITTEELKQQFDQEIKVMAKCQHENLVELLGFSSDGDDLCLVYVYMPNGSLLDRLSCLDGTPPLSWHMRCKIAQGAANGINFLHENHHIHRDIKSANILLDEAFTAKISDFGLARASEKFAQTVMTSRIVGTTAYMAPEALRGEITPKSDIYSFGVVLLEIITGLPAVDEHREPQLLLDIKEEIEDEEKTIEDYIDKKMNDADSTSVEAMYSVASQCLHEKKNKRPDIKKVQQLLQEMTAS
# TEST: IRAK4 Enzymatic DELFIA Assay
# APPLIED_CONDITIONS: 0.6 mM ATP (KM); 114 pM IRAK4 kinase domain; 200 nM substrate; 5% DMSO
pIC50: −log10 of the molar value. Counter-ions that a name gives are not always drawn.
ENDPOINT_LABEL: pIC50

See these solved cases before continuing.
COMPOUND | ENDPOINT_LABEL | REPORTED_VALUE
CC(C)COc1cc2c(O[C@@H]3CCCNC3)ccnc2cc1C(N)=O | pIC50 | 5.64
CC(C)Oc1cc2c(O[C@H]3CCN(C(=O)CC#N)[C@@H]3C)ccnc2cc1C(N)=O [Example 17, formate] | pIC50 | 6.95

1 = CC(C)Oc1cc2c(O[C@@H]3CCCN(C(=O)CC#N)C3)ncc(Cl)c2cc1C(N)=O
2 = CC(C)Oc1cc2c(O[C@@H]3CCCN(C(=O)[C@@H](N)CC#N)C3)ccnc2cc1C(N)=O [Example 46, trifluoroacetate]
Q: Lab note: record which item had the higher pIC50, 1 or 2 . Please indicate the selected item by its label.
A: 1
(1: 7.40, 2: 7.01)

###

# TARGET_OR_SYSTEM: human IRAK4 kinase domain (aa 154-460) (Homo sapiens)
# Construct: human IRAK4 kinase domain (aa 154-460; GenBank ID AF445802)
# TEST: IRAK4 Enzymatic DELFIA Assay
# APPLIED_CONDITIONS: 0.6 mM ATP (KM); 114 pM IRAK4 kinase domain; 200 nM substrate; 5% DMSO
pIC50: −log10 of the molar value. Where a name gives a salt, the structure may show the parent alone.
ENDPOINT_LABEL: pIC50

MOLECULE | pIC50
CC(C)Oc1cc2c(O[C@H]3CNCC[C@@H]3C)nccc2cc1C(N)=O | 5.90
COCC(=O)N1CCC[C@@H](Oc2ccnc3cc(C(N)=O)c(OC(C)C)cc23)C1 [Example 8, formate] | 6.77
CC(C)Oc1cc2c(O[C@H]3CCNC3)ccnc2cc1C(N)=O [Example 26, formate] | 6.02

A = CC(C)Oc1cc2c(O[C@@H]3CC[C@H](C)NC3)ccnc2cc1C(N)=O
B = CC(C)Oc1cc2c(O[C@@H]3CCCNC3)nccc2cc1C(N)=O [Example 53, hydrochloride]
Q: Select one. Lower pIC50: A or B Please indicate the selected item by its label.
A: A
(A: 6.04, B: 7.37)
